measured_target: DLG2_2, Q15700
Sequence (Q15700 189-283): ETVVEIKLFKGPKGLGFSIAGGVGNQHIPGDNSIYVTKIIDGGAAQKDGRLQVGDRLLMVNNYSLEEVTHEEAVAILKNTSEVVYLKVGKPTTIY
assay_info: holdup assay
Design: key: below the threshold = too weak to quantify, mostly under pKd 3.1 to 4
setup_conditions: plain residues with an end cap or a label only (N-terminal biotin on a linker: ado-ado)
measure: pKd

Answered cases to consult:
binder	pKd
LRSPRTPSEV [OR10G3, Q8NGC4]	3.55
TLPRKRMSSI [GPRC6A, Q5T6X5]	below the threshold
DDPSTAETVL [ABCA7, Q8IZY2]	below the threshold
EVNETDDTKM [KCNJ1, P48048]	below the threshold
GSGAVEMESV [AQP6, Q13520]	below the threshold

Data request: Can you look up the measured pKd of SAAKVLTSMC [GHRHR, Q02643] for me?
Data returned: below the threshold

Data request: Further, for EVEEFPETSV [TRPV3, Q8NET8] ?
Data returned: 4.2

Data request: Next binder up: QSPANIYYKV [EFNB1, P52799]
Data returned: below the threshold

Data request: Also PEYLGLDVPV [ERBB2, P04626] , if possible.
Data returned: below the threshold

Data request: Now the same for TSQESEDTYL [TBC1D10A, Q9BXI6]
Data returned: below the threshold
